Examples of binders with documented OD450 follow.
- Target: T1, human MSLN-hFc protein (Acro, Cat. No. MSN-H5253) (human, UniProt Q13421 296-580)
- T1 construct: the method names the coated protein as human MSLN-hFc (Acro); also called human MSLN full-length protein
- T1 sequence (Q13421 other isoform, or with tags, fused parts or gaps limits assumed): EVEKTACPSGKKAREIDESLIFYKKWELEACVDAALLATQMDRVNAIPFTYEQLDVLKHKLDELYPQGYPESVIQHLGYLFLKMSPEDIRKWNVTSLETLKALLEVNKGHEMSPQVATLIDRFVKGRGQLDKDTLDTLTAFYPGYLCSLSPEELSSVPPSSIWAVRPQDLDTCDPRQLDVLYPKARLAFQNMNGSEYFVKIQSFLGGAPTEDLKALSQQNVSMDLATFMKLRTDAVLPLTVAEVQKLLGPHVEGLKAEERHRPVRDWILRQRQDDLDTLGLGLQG
- Method notes: ELISA on coated antigen, antibody 1 nM

1) F7.44.20-H15 (scFv, not shown: small tags and cut ends, also called S009-F7.44.20 humanized antibody VH2a + VL3) scFv: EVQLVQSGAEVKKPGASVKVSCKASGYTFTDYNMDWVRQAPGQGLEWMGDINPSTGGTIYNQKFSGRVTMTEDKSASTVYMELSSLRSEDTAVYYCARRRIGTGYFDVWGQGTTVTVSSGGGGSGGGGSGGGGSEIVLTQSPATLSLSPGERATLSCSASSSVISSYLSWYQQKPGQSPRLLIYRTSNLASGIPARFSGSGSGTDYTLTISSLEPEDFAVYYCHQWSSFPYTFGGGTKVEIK	1.24 OD450
2) F7.44.20-H14 (scFv, not shown: small tags and cut ends, also called S009-F7.44.20 humanized antibody VH2a + VL2) scFv: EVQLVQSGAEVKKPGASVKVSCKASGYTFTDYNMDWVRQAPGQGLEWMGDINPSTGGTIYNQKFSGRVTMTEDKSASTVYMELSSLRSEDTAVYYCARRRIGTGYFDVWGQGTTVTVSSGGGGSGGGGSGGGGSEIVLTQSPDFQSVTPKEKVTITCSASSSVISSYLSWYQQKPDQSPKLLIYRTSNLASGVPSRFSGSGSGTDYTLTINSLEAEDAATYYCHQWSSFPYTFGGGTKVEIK	1.2 OD450

Lab note: next binder to report on.
Form field OD450, entry F7.44.20-H13 (scFv, not shown: small tags and cut ends, also called S009-F7.44.20 humanized antibody VH2a + VL1) scFv: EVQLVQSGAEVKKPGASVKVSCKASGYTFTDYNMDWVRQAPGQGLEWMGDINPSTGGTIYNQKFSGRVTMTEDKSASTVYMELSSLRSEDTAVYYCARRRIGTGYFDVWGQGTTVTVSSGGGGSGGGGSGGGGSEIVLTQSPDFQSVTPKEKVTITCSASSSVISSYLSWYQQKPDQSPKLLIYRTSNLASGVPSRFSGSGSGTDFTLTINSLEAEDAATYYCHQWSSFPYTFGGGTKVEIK : 0.98 OD450

Ref: patent US20250250357A1
